- target.or.test.system: 5-lipoxygenase (Rattus norvegicus, UniProt P12527)
- Construct: endogenous in cells; host or cells: casein-elicited peritoneal polymorphonuclear leukocytes of male Sprague-Dawley rats
- experimental.protocol: PMN5LO assay: inhibition of LTB4 production in A23187-stimulated rat peritoneal PMN (RIA)
- Format: cell-based
- run.parameters: 0.012 μg/ml
Response field class: enum, chosen by comparing inhibition at 0.012 µg/mL against small value = under 10%, mid value = from 10% up to 20%, large value = 20% and over

{"compound": "CC(=O)Oc1csc(-c2ccccc2)c1", "group": "small value"}
{"compound": "Oc1c(-c2ccccc2)sc(-c2ccccc2)c1-c1ccccc1 [Compound 2, 3-Hydroxy-2,4,5-triphenylthiophene]", "group": "large value"}
{"compound": "CC(=O)Oc1cc(-c2ccccc2)oc1-c1ccccc1", "group": "large value"}
{"compound": "Oc1cc(-c2ccccc2)sc1-c1ccccc1 [Compound 4, 3-Hydroxy-2,5-diphenylthiophene]", "group": "mid value"}
{"compound": "COCC(=O)Oc1cc(-c2ccccc2)sc1-c1ccccc1", "group": "small value"}

Entry COc1ccc(-c2sc(-c3ccccc3)cc2OC(C)=O)cc1 belongs to which category?
large value

Entry CC(=O)Oc1cc(-c2ccccc2)sc1-c1ccccc1 belongs to which category?
large value

Entry CC(=O)Oc1cc(-c2ccccc2)sc1-c1ccccc1C belongs to which category?
mid value

Entry CC(=O)Oc1cscc1-c1ccccc1 belongs to which category?
small value

Entry Oc1cc(-c2ccccc2)sc1-c1cccnc1 belongs to which category?
mid value

Entry COc1cc(-c2ccccc2)sc1-c1ccccc1 belongs to which category?
small value

Entry c1ccc(-c2ccc(-c3ccccc3)s2)cc1 belongs to which category?
mid value

====

- target.or.test.system: cyclooxygenase (Ovis aries)
- Construct: Ram seminal vesicular glands were trimmed of fat; from tissue; host or cells: ram seminal vesicular glands, microsomal pellet (105K xg)
- Sequence (P05979 25-600): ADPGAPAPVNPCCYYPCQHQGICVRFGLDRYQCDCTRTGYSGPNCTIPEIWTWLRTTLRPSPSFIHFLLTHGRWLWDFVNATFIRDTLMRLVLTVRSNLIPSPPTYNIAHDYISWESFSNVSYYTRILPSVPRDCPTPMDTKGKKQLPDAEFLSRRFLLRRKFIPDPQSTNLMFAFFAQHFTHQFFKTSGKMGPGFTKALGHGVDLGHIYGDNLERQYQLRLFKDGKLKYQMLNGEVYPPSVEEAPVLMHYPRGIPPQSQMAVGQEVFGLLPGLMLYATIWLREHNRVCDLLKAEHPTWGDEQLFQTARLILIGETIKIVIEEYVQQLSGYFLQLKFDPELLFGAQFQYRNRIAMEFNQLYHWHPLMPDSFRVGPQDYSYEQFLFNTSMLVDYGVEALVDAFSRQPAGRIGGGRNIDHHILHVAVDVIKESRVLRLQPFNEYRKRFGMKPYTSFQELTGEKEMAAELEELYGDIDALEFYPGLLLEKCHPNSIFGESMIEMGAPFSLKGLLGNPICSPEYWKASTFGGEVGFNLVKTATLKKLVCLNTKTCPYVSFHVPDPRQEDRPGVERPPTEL
- experimental.protocol: RSVM-CO: Ram Seminal Vesicle Microsomal Cyclooxygenase assay
- Format: biochemical
- run.parameters: 0.1 μg/ml
Recorded inhibition at 0.1 µg/mL by entry
Value expressed in %; do not type the unit.

{"compound": "Oc1cc(-c2ccccc2)sc1-c1ccccc1 [Compound 4, 3-Hydroxy-2,5-diphenylthiophene]", "target.or.test.system": "cyclooxygenase (Ovis aries)", "observed.result": 24}
{"compound": "COc1ccc(-c2sc3c(c2OC(C)=O)CCCC3)cc1", "target.or.test.system": "cyclooxygenase (Ovis aries)", "observed.result": 100}
{"compound": "CC(=O)Oc1cc(-c2ccccc2)sc1-c1cccnc1 [Compound 16]", "target.or.test.system": "cyclooxygenase (Ovis aries)", "observed.result": 0}
{"compound": "COc1ccc(-c2sc(-c3ccccc3)cc2OC(C)=O)cc1 [Compound 14]", "target.or.test.system": "cyclooxygenase (Ovis aries)", "observed.result": 0}

// next entry
Recorded inhibition at 0.1 µg/mL for COCOc1cc(-c2ccccc2)sc1-c1ccccc1 [Compound 12] , please?
0

====

- target.or.test.system: 5-lipoxygenase (Rattus norvegicus)
- Construct: endogenous in cells; host or cells: casein-elicited peritoneal polymorphonuclear leukocytes of male Sprague-Dawley rats
- Sequence (P12527 1-673): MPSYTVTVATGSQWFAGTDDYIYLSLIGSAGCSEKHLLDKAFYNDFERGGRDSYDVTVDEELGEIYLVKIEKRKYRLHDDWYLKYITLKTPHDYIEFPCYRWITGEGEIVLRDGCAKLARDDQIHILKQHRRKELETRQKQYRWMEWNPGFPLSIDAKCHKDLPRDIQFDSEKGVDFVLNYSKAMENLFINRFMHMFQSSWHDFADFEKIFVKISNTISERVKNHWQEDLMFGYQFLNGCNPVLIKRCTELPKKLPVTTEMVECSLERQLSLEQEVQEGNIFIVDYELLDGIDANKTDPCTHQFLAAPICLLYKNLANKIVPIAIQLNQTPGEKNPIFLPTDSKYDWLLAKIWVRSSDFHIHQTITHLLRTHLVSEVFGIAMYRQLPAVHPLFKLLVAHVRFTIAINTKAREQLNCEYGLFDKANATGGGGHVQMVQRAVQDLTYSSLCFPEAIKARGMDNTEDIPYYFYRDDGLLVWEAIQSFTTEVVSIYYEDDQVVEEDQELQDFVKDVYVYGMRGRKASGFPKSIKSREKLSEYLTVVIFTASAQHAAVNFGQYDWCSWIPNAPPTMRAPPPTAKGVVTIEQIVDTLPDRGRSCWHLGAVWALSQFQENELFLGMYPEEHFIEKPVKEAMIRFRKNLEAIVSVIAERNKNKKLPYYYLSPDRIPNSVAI
- experimental.protocol: PMN5LO assay: inhibition of LTB4 production in A23187-stimulated rat peritoneal PMN (RIA)
- Format: cell-based
- run.parameters: 0.33 μg/ml
Recorded PMN5LO % inhibition by entry
Report the figure along with its unit, number first.

Answered examples (4):
{"molecule": "COc1ccc(-c2sc3c(c2OC(C)=O)CCCC3)cc1", "PMN5LO % inhibition": "88%"}
{"molecule": "CC(=O)Oc1cc(-c2ccccc2)sc1-c1cccnc1", "PMN5LO % inhibition": "84%"}
{"molecule": "Oc1cc(-c2ccccc2)sc1-c1ccccc1 [Compound 4, 3-Hydroxy-2,5-diphenylthiophene]", "PMN5LO % inhibition": "85%"}
{"molecule": "COCOc1cc(-c2ccccc2)sc1-c1ccccc1", "PMN5LO % inhibition": "84%"}

Recorded PMN5LO % inhibition for COc1ccc(-c2sc(-c3ccccc3)cc2OC(C)=O)cc1 , please?
85%
